assay: AUC in male ICR mouse at 2 mg/kg, iv by LC-MS/MS analysis; type: ADME, organism-based; conditions: in vivo
Property measured: AUC (ng·h/mL)
// note: answer is a bare numeric in ng·h/mL

Query: // AUC lookup, key: COc1ccc(C(C)(C)c2cc(Cl)c(OCC3CCN(C(=O)CCCCCNc4ccc5c(c4)C(=O)N(C4CCC(=O)NC4=O)C5=O)CC3)c(C#N)c2)cc1 (stereo unspecified)
Result: 1850

====

test system: Protein cereblon/Androgen receptor (Homo sapiens), P10275+Q96SW2 [UNDEFINED MUTATION]; assay: PROTAC activity at CRBN/Androgen receptor splice variant 7 in human VCaP cells assessed as induction of AR-V7 degradation at 1 uM incubated for 24 hrs by Western blot analysis relative to control; assay type: cell-based
Sequence (P10275 whole entry, looked up, change not shown, canonical isoform): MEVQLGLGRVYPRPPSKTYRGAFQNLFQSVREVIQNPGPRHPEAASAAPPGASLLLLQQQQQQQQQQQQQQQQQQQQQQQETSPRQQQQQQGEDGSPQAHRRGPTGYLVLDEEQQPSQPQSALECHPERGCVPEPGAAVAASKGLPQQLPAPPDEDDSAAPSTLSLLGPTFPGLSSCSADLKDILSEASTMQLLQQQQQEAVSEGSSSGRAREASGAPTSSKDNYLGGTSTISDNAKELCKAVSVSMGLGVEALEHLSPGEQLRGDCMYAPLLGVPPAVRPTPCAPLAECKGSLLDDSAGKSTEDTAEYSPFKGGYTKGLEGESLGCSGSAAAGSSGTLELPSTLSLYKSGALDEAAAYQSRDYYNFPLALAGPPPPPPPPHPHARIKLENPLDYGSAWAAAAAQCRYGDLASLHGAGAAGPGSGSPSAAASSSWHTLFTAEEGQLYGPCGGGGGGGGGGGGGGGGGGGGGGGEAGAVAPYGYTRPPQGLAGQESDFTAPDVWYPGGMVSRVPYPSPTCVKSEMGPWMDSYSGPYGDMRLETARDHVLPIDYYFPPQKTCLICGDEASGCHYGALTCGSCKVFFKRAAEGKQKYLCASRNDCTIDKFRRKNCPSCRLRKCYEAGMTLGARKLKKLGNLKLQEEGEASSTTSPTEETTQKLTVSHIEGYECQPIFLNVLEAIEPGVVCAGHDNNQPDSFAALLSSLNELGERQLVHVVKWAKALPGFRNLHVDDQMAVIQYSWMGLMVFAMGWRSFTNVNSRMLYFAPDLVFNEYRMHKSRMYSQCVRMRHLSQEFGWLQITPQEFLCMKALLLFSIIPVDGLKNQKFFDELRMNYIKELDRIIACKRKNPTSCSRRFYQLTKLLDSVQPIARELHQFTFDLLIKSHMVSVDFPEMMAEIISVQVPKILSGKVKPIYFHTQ
Sequence (Q96SW2 whole entry, looked up, change not shown, canonical isoform): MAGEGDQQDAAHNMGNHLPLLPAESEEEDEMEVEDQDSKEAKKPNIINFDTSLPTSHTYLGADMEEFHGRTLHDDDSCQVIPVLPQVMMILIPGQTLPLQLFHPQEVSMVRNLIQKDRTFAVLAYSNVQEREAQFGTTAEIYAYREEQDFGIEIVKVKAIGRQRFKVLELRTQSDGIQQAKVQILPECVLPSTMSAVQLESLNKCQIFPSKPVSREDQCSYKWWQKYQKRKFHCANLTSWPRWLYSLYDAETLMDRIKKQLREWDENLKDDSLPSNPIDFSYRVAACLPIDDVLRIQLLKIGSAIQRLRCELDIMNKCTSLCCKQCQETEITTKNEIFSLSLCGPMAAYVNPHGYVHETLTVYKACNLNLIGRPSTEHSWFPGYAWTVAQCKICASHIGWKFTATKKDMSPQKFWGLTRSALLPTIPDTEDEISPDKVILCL
Property measured: Activity (%)
Reply with just the number (in %).

Consider the worked cases shown below.
- Compound: "CC(C)(c1ccc(OCC2CCN(C(=O)CCCCCNc3cccc4c3C(=O)N(C3CCC(=O)NC3=O)C4=O)CC2)cc1)c1ccc(OC[C@H](O)CCl)cc1 (some centres not stated)"
  Reported measurement: 21.6
- Compound: "CC(C)(c1ccc(OCC2CCN(C(=O)CCCCNc3ccc4c(c3)C(=O)N(C3CCC(=O)NC3=O)C4=O)CC2)cc1)c1ccc(OC[C@H](O)CCl)cc1 (some centres not stated)"
  Reported measurement: 5.9
- Compound: "CC(C)(c1ccc(OCC2CCN(C(=O)CCCC#Cc3ccc4c(c3)C(=O)N(C3CCC(=O)NC3=O)C4=O)CC2)cc1)c1ccc(OC[C@H](O)CCl)cc1 (some centres not stated)"
  Reported measurement: 7.4
- Compound: "CC(C)(c1ccc(OCC2CCN(C(=O)CCCCCCCNc3cccc4c3C(=O)N(C3CCC(=O)NC3=O)C4=O)CC2)cc1)c1ccc(OC[C@H](O)CCl)cc1 (some centres not stated)"
  Reported measurement: 8.4

Query: Would you kindly share the measured Activity for CC(C)(c1ccc(OCC2CCN(C(=O)CCCCCNc3ccc4c(c3)C(=O)N(C3CCC(=O)NC3=O)C4=O)CC2)cc1)c1ccc(OC[C@H](O)CCl)cc1 (some centres not stated) ?
Result: 46

====

Activity for assorted compounds
tested on: Protein cereblon/Androgen receptor (Homo sapiens), P10275+Q96SW2 [UNDEFINED MUTATION]; test: PROTAC activity at CRBN/Androgen receptor splice variant 7 in human 22Rv1 cells assessed as induction of AR-V7 degradation at 5 uM incubated for 24 hrs by Western blot analysis relative to control; format: cell-based
Give just the number in %; leave the unit off.

Would you please look over these solved cases?
- Compound: "CC(C)(c1ccc(OCC2CCN(C(=O)CCCCCCNc3ccc4c(c3)C(=O)N(C3CCC(=O)NC3=O)C4=O)CC2)cc1)c1ccc(OC[C@H](O)CCl)cc1 (stereo partly specified)"
  Target or test system: "Protein cereblon/Androgen receptor (Homo sapiens), P10275+Q96SW2 [UNDEFINED MUTATION]"
  Activity, %: 30.7
- Compound: "CC(C)(c1ccc(OCC2CCN(C(=O)CCCCNc3cccc4c3C(=O)N(C3CCC(=O)NC3=O)C4=O)CC2)cc1)c1ccc(OC[C@H](O)CCl)cc1 (stereo partly specified)"
  Target or test system: "Protein cereblon/Androgen receptor (Homo sapiens), P10275+Q96SW2 [UNDEFINED MUTATION]"
  Activity, %: 27.1

Query: Quick one: Activity for CC(C)(c1ccc(OCC2CCN(C(=O)CCCCCOc3ccc4c(c3)C(=O)N(C3CCC(=O)NC3=O)C4=O)CC2)cc1)c1ccc(OC[C@H](O)CCl)cc1 (stereo partly specified) ?
Result: 67.4

Query: What do you get for CC(C)(c1ccc(OCC2CCN(C(=O)CCCCOc3ccc4c(c3)C(=O)N(C3CCC(=O)NC3=O)C4=O)CC2)cc1)c1ccc(OC[C@H](O)CCl)cc1 (stereo partly specified) ?
Result: 56

====

system: Protein cereblon/Androgen receptor (Homo sapiens), P10275+Q96SW2 [UNDEFINED MUTATION]; test: PROTAC activity at CRBN/Androgen receptor splice variant 7 in human VCaP cells assessed as induction of AR-V7 degradation at 1 uM incubated for 24 hrs by Western blot analysis relative to control; assay type: cell-based
The following compounds are shown together with reported Activity values.

As a guide, the following entries are already answered.
- Compound: "CC(C)(c1ccc(OCC2CCN(C(=O)CCCCNc3cccc4c3C(=O)N(C3CCC(=O)NC3=O)C4=O)CC2)cc1)c1ccc(OC[C@H](O)CCl)cc1 (stereo partly drawn)"
  Target or test system: "Protein cereblon/Androgen receptor (Homo sapiens), P10275+Q96SW2 [UNDEFINED MUTATION]"
  Activity: "< 5%"
- Compound: "CC(C)(c1ccc(OCC2CCN(C3CN(C(=O)CNc4ccc5c(c4)C(=O)N(C4CCC(=O)NC4=O)C5=O)C3)CC2)cc1)c1ccc(OC[C@H](O)CCl)cc1 (stereo partly drawn)"
  Target or test system: "Protein cereblon/Androgen receptor (Homo sapiens), P10275+Q96SW2 [UNDEFINED MUTATION]"
  Activity: "< 5%"

Now examine the next entry.
Query: Data request, read-out Activity, for CC(C)(c1ccc(OCC2CCN(C(=O)CCCCOc3ccc4c(c3)C(=O)N(C3CCC(=O)NC3=O)C4=O)CC2)cc1)c1ccc(OC[C@H](O)CCl)cc1 (stereo partly drawn)
Result: < 5%

====

Listing of recorded Activity by entry.
molecular target: Protein cereblon/Eukaryotic peptide chain release factor GTP-binding subunit ERF3A (Homo sapiens, UniProt Q96SW2+P15170); assay: Molecular glue activity at CRBN/GSPT1 in human 22Rv1 cells assessed as induction of GSPT1 degradation at 0.01 uM incubated for 24 hrs by Western blot analysis relative to control; format: cell-based
Sequence (P15170 whole entry, looked up): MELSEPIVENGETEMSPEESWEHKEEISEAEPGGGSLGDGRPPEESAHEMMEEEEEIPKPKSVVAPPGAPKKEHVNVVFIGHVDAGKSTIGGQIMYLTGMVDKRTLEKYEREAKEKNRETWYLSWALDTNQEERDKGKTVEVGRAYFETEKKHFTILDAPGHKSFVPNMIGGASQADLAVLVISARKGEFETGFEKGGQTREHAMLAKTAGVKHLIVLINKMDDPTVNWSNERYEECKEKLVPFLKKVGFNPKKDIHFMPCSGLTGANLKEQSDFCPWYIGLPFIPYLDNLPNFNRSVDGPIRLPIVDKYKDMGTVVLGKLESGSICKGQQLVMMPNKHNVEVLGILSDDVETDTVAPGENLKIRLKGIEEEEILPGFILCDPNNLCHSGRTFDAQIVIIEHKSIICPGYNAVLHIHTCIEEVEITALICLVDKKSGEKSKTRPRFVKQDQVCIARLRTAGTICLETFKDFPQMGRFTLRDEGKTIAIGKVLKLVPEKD
Sequence (Q96SW2 whole entry, looked up): as the sequence (Q96SW2 whole entry, looked up, change not shown, canonical isoform) above

# annotated cases, reported Activity shown
- Compound: "CC(C)(c1ccc(OCc2ccncn2)cc1)c1cc(Cl)c(OCC2CCN(C(=O)CCCCCNc3ccc4c(c3)C(=O)N(C3CCC(=O)NC3=O)C4=O)CC2)c(C#N)c1 (stereo not drawn)"
  Property measured: "Activity"
  Reported measurement: "97.5%"
- Compound: "COc1ccc(C(C)(C)c2ccc(OCC3CCN(C(=O)CCCCCNc4ccc5c(c4)C(=O)N(C4CCC(=O)NC4=O)C5=O)CC3)cc2)cc1 (stereo not drawn)"
  Property measured: "Activity"
  Reported measurement: "88.3%"
- Compound: "CC1(COc2ccc(C(C)(C)c3cc(Cl)c(OCC4CCN(C(=O)CCCCCNc5ccc6c(c5)C(=O)N(C5CCC(=O)NC5=O)C6=O)CC4)c(C#N)c3)cc2)COC1 (stereo not drawn)"
  Property measured: "Activity"
  Reported measurement: "95.3%"
- Compound: "CC(C)(c1ccc(OCC2CCOCC2)cc1)c1cc(Cl)c(OCC2CCN(C(=O)CCCCCNc3ccc4c(c3)C(=O)N(C3CCC(=O)NC3=O)C4=O)CC2)c(C#N)c1 (stereo not drawn)"
  Property measured: "Activity"
  Reported measurement: "93.6%"
- Compound: "COc1ccc(C(C)(C)c2cc(Cl)c(OCC3CCN(C(=O)CCCCCNc4ccc5c(c4)C(=O)N(C4CCC(=O)N(C)C4=O)C5=O)CC3)c(C#N)c2)cc1 (stereo not drawn)"
  Property measured: "Activity"
  Reported measurement: "< 5%"

Query: Value lookup for Activity; key = COc1ccc(C(C)(C)c2cc(Cl)c(OCC3CCN(C(=O)CCCCCNc4ccc5c(c4)C(=O)N(C4CCC(=O)NC4=O)C5=O)CC3)c(Cl)c2)cc1 (stereo not drawn)
Result: 72.9%

Query: Same question for "COc1ccc(C(C)(C)c2cc(Cl)c(OCC3CCN(C(=O)CCCCCNc4ccc(C(=O)N[C@H]5CCC(=O)NC5=O)c(F)c4)CC3)c(C#N)c2)cc1" please.
Result: < 5%

Query: Request: COc1ccc(C(C)(C)c2cc(Cl)c(OCC3CCN(C(=O)CCCCCNc4cc5c(cc4F)C(=O)N(C4CCC(=O)NC4=O)C5=O)CC3)c(C#N)c2)cc1 (stereo not drawn)
Result: 74.6%

====

Measured Activity, listed per entry.
tested on: Protein cereblon/Androgen receptor (Homo sapiens), P10275+Q96SW2 [UNDEFINED MUTATION]; test: PROTAC activity at CRBN/Androgen receptor splice variant 7 in human 22Rv1 cells assessed as induction of AR-V7 degradation at 1 uM incubated for 24 hrs by Western blot analysis relative to control; format: cell-based
Express your answer in %, writing the number without its unit.

- Molecule: "CC(C)(c1ccc(OCC2CCN(C(=O)CCCCNc3ccc4c(c3)C(=O)N(C3CCC(=O)NC3=O)C4=O)CC2)cc1)c1ccc(OC[C@H](O)CCl)cc1 (some centres undefined)"
  Property measured: "Activity"
  Reported measurement: 11.8

// below: Activity requested for another molecule
Query: Quick one: Activity for CC(C)(c1ccc(OCC2CCN(C(=O)CCCCCCNc3ccc4c(c3)C(=O)N(C3CCC(=O)NC3=O)C4=O)CC2)cc1)c1ccc(OC[C@H](O)CCl)cc1 (some centres undefined) ?
Result: 8.6
